target-or-test-system: mAChR M1 (Homo sapiens)
Construct: expressed in transfected cells; host or cells: CHO-K1
Sequence (P11229 1-460): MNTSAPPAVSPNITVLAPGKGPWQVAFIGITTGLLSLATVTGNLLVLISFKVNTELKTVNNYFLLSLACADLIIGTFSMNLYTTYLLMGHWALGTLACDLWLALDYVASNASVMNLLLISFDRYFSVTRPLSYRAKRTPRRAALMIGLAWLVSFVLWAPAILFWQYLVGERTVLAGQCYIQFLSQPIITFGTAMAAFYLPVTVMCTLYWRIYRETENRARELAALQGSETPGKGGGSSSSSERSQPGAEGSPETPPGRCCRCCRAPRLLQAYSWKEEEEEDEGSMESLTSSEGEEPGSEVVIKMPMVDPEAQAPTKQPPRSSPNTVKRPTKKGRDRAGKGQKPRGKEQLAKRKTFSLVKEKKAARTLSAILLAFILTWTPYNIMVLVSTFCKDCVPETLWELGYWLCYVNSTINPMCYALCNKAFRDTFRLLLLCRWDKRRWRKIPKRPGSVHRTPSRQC
procedure-text: mAChR M1 cell-based functional assay (calcium mobilization, potentiation of EC20 acetylcholine response in CHO-K1 cells)
study-conditions: positive allosteric modulation of EC20 acetylcholine response; >10,000 estimated where no plateau in the curve
Procedure: Chinese hamster ovary (CHO-K1) cells stably expressing rat (r)M1 were purchased from the American Type Culture Collection and cultured according to their indicated protocol. […] Calcium flux was measured using the Functional Drug Screening System (FDSS) 6000 (Hamamatsu Corporation, Tokyo, Japan) as an increase in the fluorescent static ratio. […] Agonist activity was analyzed as a concentration-dependent increase in calcium mobilization upon compound addition. […]
pEC50: −log10 of the molar value.
parameter-measured: pEC50

> print(dat)
                                    molecule  lt.gt.eq  measured.value
 1  Cn1cc(-c2ccc(Cn3cc(S(=O)(=O)CCNC(=O)c4cocn4)c4c(F)cc(F)cc43)c(F)c2)cn1         <            5.00
 2  Cn1cc(-c2ccc(Cn3cc(C(=O)NCCc4ccccn4)c4ccccc43)c(F)c2)cn1         <            5.00
 3  Cn1cc(-c2ccc(Cn3cc(C(=O)O)c4ccccc43)c(F)c2)cn1         <            5.00
 4  Cn1cc(-c2ccc(CN3C(=O)COc4ccccc43)c(F)c2)cn1         <            5.00
 5  COc1cc2ccccc2n(Cc2ccc(-c3cnn(C)c3)cc2F)c1=O         =            5.62
 6  Cn1cc(-c2ccc(Cn3cc(S(=O)(=O)CCNC(=O)c4cnccn4)c4c(F)cc(F)cc43)c(F)c2)cn1         =            5.47
 7    Cn1cc(-c2ccc(CN3Cc4ccccc4C3)c(F)c2)cn1         =            5.46
 8  Cn1cc(-c2ccc(Cn3cc(S(C)(=O)=O)c4ccccc43)c(F)c2)cn1         =            5.41
 9  Cn1cc(-c2ccc(Cn3cc(S(=O)(=O)CCNC(=O)c4ccccn4)c4c(F)cc(F)cc43)c(F)c2)cn1         <            5.00
10  Cn1cc(-c2ccc(Cn3c(=O)ccc4ccccc43)c(F)c2)cn1         =            5.44
11  Cn1cc(-c2ccc(Cn3cc(S(=O)(=O)CCNC(=O)c4ccn[nH]4)c4c(F)cc(F)cc43)c(F)c2)cn1         =            5.09
12  Cn1cc(-c2ccc(Cn3cc(S(=O)(=O)CCNC(=O)c4ccncc4)c4c(F)cc(F)cc43)c(F)c2)cn1         <            5.00
13  Cn1cc(-c2ccc(CN3CC(C(=O)O)c4ccccc43)c(F)c2)cn1 (centres unmarked)         <            5.00
14  Cn1cc(-c2ccc(CN3C(=O)OCc4ccccc43)c(F)c2)cn1         =            5.51
15  Cn1cc(-c2ccc(Cn3cc(S(=O)(=O)CCNC(=O)c4cccc(F)c4)c4c(F)cc(F)cc43)c(F)c2)cn1         <            5.00
16  Cn1cc(-c2ccc(CN3C(=O)CSc4ccccc43)c(F)c2)cn1         <            5.00
17  Cn1cc(-c2ccc(Cn3cc(S(=O)(=O)CCNC(=O)c4cccnn4)c4c(F)cc(F)cc43)c(F)c2)cn1         =            5.25
18  Cn1cc(-c2ccc(CN3c4ccccc4CS3(=O)=O)c(F)c2)cn1         <            5.00
19  Cn1cc(-c2ccc(Cn3cc(S(=O)(=O)CCNC(=O)c4ccnnc4)c4c(F)cc(F)cc43)c(F)c2)cn1         =            5.12
20  Cn1cc(-c2ccc(CN3C(=O)CCc4ccccc43)c(F)c2)cn1         <            5.00
21  Cn1cc(-c2ccc(CN3CC[S+]([O-])c4ccccc43)c(F)c2)cn1 (centres unmarked)         <            5.00
22  Cn1cc(-c2ccc(Cn3cc(C(=O)Nc4cccnc4)c4ccccc43)c(F)c2)cn1         =            5.27
23  Cn1cc(-c2ccc(CN3Cc4ccccc4C3C(=O)O)c(F)c2)cn1 (centres unmarked)         <            5.00
24  Cn1cc(-c2ccc(CN3C(=O)NCc4ccccc43)c(F)c2)cn1         <            5.00
25  Cn1cc(-c2ccc(CN3C(=O)CS(=O)(=O)c4ccccc43)c(F)c2)cn1         <            5.00
26  Cn1cc(-c2ccc(CN3C(=O)C[S+]([O-])c4ccccc43)c(F)c2)cn1 (centres unmarked)         <            5.00
27  Cn1cc(-c2ccc(CNc3ccccc3[S+](C)[O-])c(F)c2)cn1 (centres unmarked)         <            5.00
28  Cn1cc(-c2ccc(Cn3nc4ccccn4c3=O)c(F)c2)cn1         =            5.03
29  Cn1cc(-c2ccc(Cn3c(=O)sc4ccccc43)c(F)c2)cn1         <            5.00
30  Cn1cc(-c2ccc(CNc3ccccc3S(C)(=O)=O)c(F)c2)cn1         <            5.00
31  Cc1cc(NC(=O)c2cn(Cc3ccc(-c4cnn(C)c4)cc3F)c3ccccc23)no1         =            5.30
32  Cn1cc(-c2ccc(Cn3cc(S(=O)(=O)CCNC(=O)c4ccno4)c4c(F)cc(F)cc43)c(F)c2)cn1         =            5.55
